Numbers sourced from paper PMC4984800.

- testName: First-in-human trial: pharmacokinetics in plasma and urine
- Format: in vivo
- condition: human, plasma, oral, 15 mg, Schedule 2, 15 mg, N=7; median (range)
observationType: AUC(0-inf) (ng·h/mL)
The response must be a number in ng·h/mL with no trailing unit.

**Query** Retrieve AUC(0-inf) measured for `COc1cccc2cc(-c3nc([C@H]4CC[C@H](C(=O)O)CC4)n4ncnc(N)c34)[nH]c12` and print it.
**Result** 25900

====

- testName: First-in-human trial: pharmacokinetics in plasma and urine
- Assay type: in vivo
- condition: human, plasma, oral, 10 mg, Schedule 3, 10 mg, Day 1, N=3; median (range); read-out: T1/2 (converted)
observationType: half-life
Please state the number and follow it with the unit.

**Query** Tell us which half-life value is on record for `COc1cccc2cc(-c3nc([C@H]4CC[C@H](C(=O)O)CC4)n4ncnc(N)c34)[nH]c12`
**Result** 7.24 h
